- tested_system: recombinant GABA α3β2γ2 receptors (HEK-293 cell membranes) (Homo sapiens, UniProt P18507+P34903)
- Construct: membranes
- Sequence (P34903 29-492): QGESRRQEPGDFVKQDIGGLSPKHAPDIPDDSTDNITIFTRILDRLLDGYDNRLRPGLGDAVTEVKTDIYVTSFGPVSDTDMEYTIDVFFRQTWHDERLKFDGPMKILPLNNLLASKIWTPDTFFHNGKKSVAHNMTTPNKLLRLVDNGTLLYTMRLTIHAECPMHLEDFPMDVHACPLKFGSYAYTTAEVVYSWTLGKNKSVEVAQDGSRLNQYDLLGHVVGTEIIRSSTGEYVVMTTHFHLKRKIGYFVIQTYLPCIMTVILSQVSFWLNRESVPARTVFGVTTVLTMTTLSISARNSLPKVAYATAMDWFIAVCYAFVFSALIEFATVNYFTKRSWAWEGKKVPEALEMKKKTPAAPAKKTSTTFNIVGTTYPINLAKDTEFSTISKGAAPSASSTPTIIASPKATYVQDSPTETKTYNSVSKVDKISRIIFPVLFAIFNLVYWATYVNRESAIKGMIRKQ
- Sequence (P47870 25-512 partner limits assumed): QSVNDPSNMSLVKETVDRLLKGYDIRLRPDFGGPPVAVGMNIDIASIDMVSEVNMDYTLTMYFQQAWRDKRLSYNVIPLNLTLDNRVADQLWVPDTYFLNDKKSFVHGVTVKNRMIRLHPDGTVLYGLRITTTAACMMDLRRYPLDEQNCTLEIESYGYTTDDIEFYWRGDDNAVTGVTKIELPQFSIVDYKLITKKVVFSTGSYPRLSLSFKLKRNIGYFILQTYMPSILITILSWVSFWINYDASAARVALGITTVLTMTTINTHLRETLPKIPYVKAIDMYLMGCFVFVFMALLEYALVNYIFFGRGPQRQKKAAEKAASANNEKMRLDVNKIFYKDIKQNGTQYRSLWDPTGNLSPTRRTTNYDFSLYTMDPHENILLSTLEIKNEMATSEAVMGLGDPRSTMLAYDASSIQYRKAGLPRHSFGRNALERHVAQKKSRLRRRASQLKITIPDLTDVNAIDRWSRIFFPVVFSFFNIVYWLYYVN
- Sequence (P18507 40-475): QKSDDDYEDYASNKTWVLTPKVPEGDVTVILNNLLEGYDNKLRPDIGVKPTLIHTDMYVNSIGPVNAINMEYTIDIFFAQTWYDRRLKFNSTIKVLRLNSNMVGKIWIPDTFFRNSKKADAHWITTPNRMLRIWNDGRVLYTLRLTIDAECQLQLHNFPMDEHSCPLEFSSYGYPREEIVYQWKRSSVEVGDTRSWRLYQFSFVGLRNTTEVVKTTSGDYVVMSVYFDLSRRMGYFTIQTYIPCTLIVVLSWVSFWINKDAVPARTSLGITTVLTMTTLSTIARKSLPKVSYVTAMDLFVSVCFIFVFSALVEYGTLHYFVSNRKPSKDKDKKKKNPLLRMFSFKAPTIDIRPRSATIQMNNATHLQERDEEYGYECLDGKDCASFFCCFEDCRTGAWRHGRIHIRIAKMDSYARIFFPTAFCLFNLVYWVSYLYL
- protocol: In vitro inhibition of 3H-flumazenil binding
- run_conditions: 3H-flumazenil 1 nM, 40 min at 2° C., HEK-293 α3β2γ2 membranes
measured_property: pIC50
Note: pIC50 values are expressed as the negative base-10 logarithm of concentration in M.

Problem: Could you share which pIC50 value was measured for COc1ncc(-c2cccc(-n3cnc4cc(C(C)(C)O)cnc43)c2)c(OC)n1 ?
Solution: 7.42
